Tested on: U2OS
TEST_DETAILS: Multiplex assay against U2OS
Type: toxicity, cell-based
TEST_SETTINGS: human, 12 h, 1 µM, compound concentration 1 uM, replicate 2
Reported Population Mitotic Cells (%) by item:
Please reply with the bare figure in % and do not write the unit itself.

[[record]]
compound = "CN(C)C(=O)/C(C#N)=C/c1ccc(-c2nc3cnc4[nH]ccc4c3n2C2CCCCC2)o1"
meas_value = 42

[[record]]
compound = "Cc1nc(-c2cn3c(n2)-c2ccc(-c4cnn(C(C)(C)C(N)=O)c4)cc2OCC3)n(C(C)C)n1"
meas_value = 83

[[record]]
compound = "COc1cc2nccc(Oc3ccc(NC(=O)Nc4cc(C)on4)c(Cl)c3)c2cc1OC.O"
meas_value = 0

[[record]]
compound = "CCN(CC)CCCCNc1ncc2cc(-c3cc(OC)cc(OC)c3)c(NC(=O)NC(C)(C)C)nc2n1"
meas_value = 45

[[record]]
compound = "Cc1nc(-c2ccc(-c3ccc(C(=O)N4CCc5cc6c(cc54)C4(CCN(C)CC4)CO6)cc3)c(C)c2)no1"
meas_value = 71


Documented Population Mitotic Cells (%) of CNCc1ccc(-c2cc(-c3nc(-c4ccc(S(=O)(=O)C(C)C)cc4)cnc3N)on2)cc1 : 89

Documented Population Mitotic Cells (%) of c1cn2cc(-c3ccc4cn[nH]c4c3)nc(Nc3ccc(N4CCOCC4)cc3)c2n1 : 60

Documented Population Mitotic Cells (%) of OC1(c2ccc(Cl)cc2)CCN(Cc2c[nH]c3ccccc23)CC1 : 100

Documented Population Mitotic Cells (%) of COc1ncc(-c2ccc3nccc(-c4ccnnc4)c3c2)cc1NS(=O)(=O)c1ccc(F)cc1F : 50

Documented Population Mitotic Cells (%) of CN1CCN(c2ccc(OC(F)(F)F)c(Nc3ncc4c(n3)-c3c(c(C(N)=O)nn3CCO)CC4)c2)CC1 : 75

Documented Population Mitotic Cells (%) of C[C@@]1(C(=O)Nc2ccc(F)nc2)CCCN1c1nc(Nc2cc(C3CC3)n[nH]2)c2cccn2n1 : 83

Documented Population Mitotic Cells (%) of CN1CCCC(n2nc(Cc3ccc(Cl)cc3)c3ccccc3c2=O)CC1.Cl (configuration not stated) [AZELASTINE HYDROCHLORIDE] : 75

----------
Test system: U2OS
TEST_DETAILS: Multiplex assay against U2OS
Format: toxicity, cell-based
TEST_SETTINGS: human, 24 h, 10 µM, compound concentration 10 uM, replicate 2
Label condition met for high-side Population Fragmented Nuclei (%) (at or above 20%) and condition not met for low-side Population Fragmented Nuclei (%) (below it).

Worked examples, 2 molecules total:
[[record]]
molecule = "CN1CCCC(n2nc(Cc3ccc(Cl)cc3)c3ccccc3c2=O)CC1.Cl (stereo not drawn) [AZELASTINE HYDROCHLORIDE]"
assigned_label = "condition not met"

[[record]]
molecule = "C=CC(=O)Nc1cccc(C(=O)Nc2ccc(Nc3cc(-c4[nH]c(SC)nc4C)ccn3)cc2)c1"
assigned_label = "condition not met"


Task item: Can COc1cc(-n2cnc3cc(-c4ccc(Cl)cc4)sc3c2=O)ccc1OCCN1CCCC1 be said to have Population Fragmented Nuclei (%) at or above 20%?
Reply: condition met

Task item: Can CN1CCN(c2ccc(OC(F)(F)F)c(Nc3ncc4c(n3)-c3c(c(C(N)=O)nn3CCO)CC4)c2)CC1 [ONVANSERTIB] be said to have Population Fragmented Nuclei (%) at or above 20%?
Reply: condition not met

Task item: Can c1cn2cc(-c3ccc4cn[nH]c4c3)nc(Nc3ccc(N4CCOCC4)cc3)c2n1 [ENTOSPLETINIB] be said to have Population Fragmented Nuclei (%) at or above 20%?
Reply: condition met
